Cited source for all entries: ChEMBL document CHEMBL5674860

- Test system: Colon cancer organoid
- Measurement protocol: Optimized Dual-Glo assay to identify co-culture induced drug vulnerabilities using donated chemical probes and chemogenomics kinase set in O06 CRC organoid and F06 CAF mono and co-culture. […] Cell viability is reported both mono and co-culture models.
- Format: functional, Homo sapiens
- Design: dose or concentration left out as unconfirmed
- Test conditions: Culture type Mono-Culture; Transduced with Renilla-dsRed lentivirus
Value kind: Cell Viability (%)
The reply should contain only the number, in %.

Example entries begin here.
C[C@H](c1ccc(F)cc1)N(Cc1cccc(C(=O)O)c1)C(=O)c1cnc2ccccc2c1 ... 91.4083
CN(C)[C@H]1CCN(c2cc(-c3ccccc3)nc3ccnn23)C1 [(S)-ZINC-3573] ... 118.538
COCC(=O)NC/C=C/c1ccc2ncnc(Nc3ccc(Oc4ccc(C)nc4)c(C)c3)c2c1 ... 91.801

# input Look up Cell Viability of Cc1nc(-c2cn3c(n2)-c2ccc(-c4cnn(C(C)(C)C(N)=O)c4)cc2OCC3)n(C(C)C)n1 and report it.
# output 59.8749

# input Look up Cell Viability of O=C(CNCc1cc2ccccc2[nH]1)N[C@H]1CC[C@@H](c2nc3ccccc3[nH]2)CC1 and report it.
# output 98.1178

# input Look up Cell Viability of COc1cc(C#N)ccc1S(=O)(=O)Nc1ccc2c(c1)cc(C)c(=O)n2C and report it.
# output 105.903

# input Look up Cell Viability of CN([C@@H]1CCc2c(CC(=O)O)c3ccccc3n2C1)S(=O)(=O)c1ccc(F)cc1 and report it.
# output 110.238

# input Look up Cell Viability of Cc1ccc2nc(CNCCCOc3ccccc3)cc(O)c2c1 and report it.
# output 105.774

# input Look up Cell Viability of COc1cc2c(cc1-c1c(C)noc1C)ncc1[nH]c(=O)n([C@H](C)c3ccccn3)c12 and report it.
# output 294.029

# input Look up Cell Viability of COc1ccccc1-c1cc(N2CCN(C(=O)OC(C)(C)C)CC2)c(N)nn1 and report it.
# output 116.6

# input Look up Cell Viability of Nc1nc(NCc2ccccc2)nc(-c2ccccc2CO)n1 and report it.
# output 96.3715
